experiment: qHTS for Inhibitors of human tyrosyl-DNA phosphodiesterase 1 (TDP1): qHTS in cells in presence of CPT; conditions: chicken DT40 Tdp1-/-;hTDP1 cells + 20 nM CPT, ATP luminescence, 48 h; series mostly up to 46.2 µM; note: nearly all actives have a fitted effect of over 55% in size
The whole screen tested about 420,000 compounds, of which about 50,000 (12%) were called active. Another 26% or so got no clear call; they are omitted. Calls come from the whole dose curve; as a rule, active = well fitted inhibition curve with a large enough effect; inconclusive = small, poorly fitted or top-dose-only effect; inactive = flat fitted curve, though single readings scatter. Many of the other results were omitted from the sample, so actives are more common in it than they were.
Possible outcomes: active, inactive

                                    compound  assigned_category
 0            O=S(=O)(c1ccccc1)N1CCc2ccccc21           inactive
 1  CCCN(CCC)CCNC(=O)c1ccc2c(c1)NC(=O)C(CS(=O)(=O)Cc1cccc(Br)c1)N2 (stereo unspecified)           inactive
 2       Cc1ccc(SCC(=O)Nc2ccc3c(c2)OCCO3)cc1           inactive
 3  O=C(Nc1nnc(S(=O)(=O)N2CCCc3ccccc32)s1)c1cccc(F)c1             active
 4  Cc1ccc2nc(-c3ccc(O)cc3)c(Nc3ccc4c(c3)OCO4)n2c1             active
 5  Cc1nc([N+](=O)[O-])cn1CC(=O)Nc1ccc2c(c1)OCO2           inactive
 6  Cc1cccc(C(=O)Nc2nnc(S(=O)(=O)N3CCCCCC3)s2)c1           inactive
 7  CCC(=O)Nc1nnc(S(=O)(=O)N2CCCc3ccccc32)s1           inactive
 8   CSc1nc2ccc(S(=O)(=O)N3CCc4ccccc43)cc2s1             active
 9  CCOC(=O)CSc1nnc(NC(=O)c2cccc(S(=O)(=O)N3CCCCC3)c2)s1           inactive
10  NS(=O)(=O)c1ccc2nc(NC(=O)C3=COCCO3)sc2c1           inactive
